system: MS2 coat protein; experiment: apparent KD of MS2 coat protein; designed switch direction (-1 OFF switch, 1 ON switch): -1; higher = weaker reporter binding; conditions: input ligand: none
Reported apparent KD of MS2 coat protein is given for each of the following sequences.

BIOPOLYMER SEQUENCE: GCGGAGUCAGGAUAUUGAAUUUAACGUACCAAUAAGGUACGCGAGAAGGGACAUGAGGAUCACCCAUGUACCGC [Mat - Exclusion 4 - Eli Mod - D35] (Eterna round: R97, puzzle: Exclusion 4)
apparent KD of MS2 coat protein: 17.3 nM
//
BIOPOLYMER SEQUENCE: CGUAAAAGGUAGGAUAUGCUAGACGAAAGUCUAGCAGAAGGACCUACAUGAGGAUCACCCAUGUGUCCAAUACG [Mat - Exclusion 6 - Eli Mod - D22] (Eterna round: R97, puzzle: Exclusion 6)
apparent KD of MS2 coat protein: 117 nM
//
BIOPOLYMER SEQUENCE: GCUCGCGGGCAAGGAUAUCCUACGCUGUUCUGGCCCGUGUCUGUUACAUGAGGAUCACCCAUGUGGGAGAAGGUGCACCAGGGC [Design 46] (Eterna round: R96, puzzle: Exclusion NG 2)
apparent KD of MS2 coat protein: 19.1 nM
//
BIOPOLYMER SEQUENCE: GGUCUACAUGAGGAUCACCCAUGUUAGGAUAUGCUUCGUCGGGCUAUACACGGCGGAUGUAGAAGGGACCUGGU [Eternabot (L1) Solution 83] (Eterna round: R97, puzzle: Exclusion 1)
apparent KD of MS2 coat protein: 20.2 nM
//
BIOPOLYMER SEQUENCE: UAAUUAGCAAGUAGAUCCGACAUGAGGAUCACCCAUGUUAUCUGAAAGAACGCAGAAUAAUUGUGAGCUCGUCUAAA [Sensor-V1 #2] (Eterna round: R97, puzzle: Sensor, turn-off variant 1)
apparent KD of MS2 coat protein: 154 nM
